- Tested on: D4 (FRβ) CHO cells
- experiment.notes: Cell proliferation assay, D4 CHO cells expressing FRβ
- Format: cell-based, Chinese hamster
- test.conditions: ratio of IC50 PC43-10 (RFC) to IC50 D4 (FRβ)
# Lookup of reported RFC/FRβ Selectivity ratios keyed by entry

>>> result("Cc1[nH]c2nc(N)[nH]c(=O)c2c1CCc1ccc(C(=O)N[C@@H](CCC(=O)O)C(=O)O)c(F)c1 [Compound 8]")
">20"

Input: Observed RFC/FRβ Selectivity ratios on D4 (FRβ) CHO cells for Nc1nc2[nH]cc(CCc3ccc(C(=O)N[C@@H](CCC(=O)O)C(=O)O)c(F)c3)c2c(=O)[nH]1 [Compound 4] , please.
Output: 19

Input: Observed RFC/FRβ Selectivity ratios on D4 (FRβ) CHO cells for Cc1[nH]c2nc(N)[nH]c(=O)c2c1CCc1ccc(C(=O)N[C@@H](CCC(=O)O)C(=O)O)s1 [Compound 7] , please.
Output: >335

Input: Observed RFC/FRβ Selectivity ratios on D4 (FRβ) CHO cells for Nc1nc2[nH]cc(CCc3ccc(C(=O)N[C@@H](CCC(=O)O)C(=O)O)s3)c2c(=O)[nH]1 [Compound 3] , please.
Output: 0.11

Input: Observed RFC/FRβ Selectivity ratios on D4 (FRβ) CHO cells for Cc1[nH]c2nc(N)[nH]c(=O)c2c1CCc1ccc(C(=O)N[C@@H](CCC(=O)O)C(=O)O)cc1 [Compound 5] , please.
Output: >175

Input: Observed RFC/FRβ Selectivity ratios on D4 (FRβ) CHO cells for Cc1[nH]c2nc(N)[nH]c(=O)c2c1CCCc1ccc(C(=O)N[C@@H](CCC(=O)O)C(=O)O)cc1 [Compound 6] , please.
Output: >383

----------
# Lookup of reported RFC/FRα Selectivity ratios keyed by entry
- System: RT16 (FRα) CHO cells
- experiment.notes: Cell proliferation assay, RT16 CHO cells expressing human FRα
- Assay type: cell-based, Chinese hamster
- test.conditions: ratio of IC50 PC43-10 (RFC) to IC50 RT16 (FRα)

# annotated cases, reported RFC/FRα Selectivity ratios shown
>>> result("Cc1[nH]c2nc(N)[nH]c(=O)c2c1CCc1ccc(C(=O)N[C@@H](CCC(=O)O)C(=O)O)s1")
">395"
>>> result("Cc1[nH]c2nc(N)[nH]c(=O)c2c1CCc1ccc(C(=O)N[C@@H](CCC(=O)O)C(=O)O)cc1")
">10.5"
>>> result("Nc1nc2[nH]cc(CCc3ccc(C(=O)N[C@@H](CCC(=O)O)C(=O)O)s3)c2c(=O)[nH]1")
0.11
>>> result("Cc1[nH]c2nc(N)[nH]c(=O)c2c1CCc1ccc(C(=O)N[C@@H](CCC(=O)O)C(=O)O)c(F)c1")
">10"
>>> result("Cc1[nH]c2nc(N)[nH]c(=O)c2c1CCCc1ccc(C(=O)N[C@@H](CCC(=O)O)C(=O)O)cc1")
">15.7"

# input for lookup
Input: Dear colleague, I am looking for the recorded RFC/FRα Selectivity ratios of the following molecule: Nc1nc2[nH]cc(CCc3ccc(C(=O)N[C@@H](CCC(=O)O)C(=O)O)c(F)c3)c2c(=O)[nH]1
Output: 25

----------
- Tested on: R2/PCFT4 (PCFT) CHO cells
- experiment.notes: Cell proliferation assay, R2/PCFT4 CHO cells expressing human PCFT
- Format: cell-based, Chinese hamster
- test.conditions: Cricetulus griseus, R2/PCFT4; 96 h, 0-1000 nM, mean (standard error), 3-5 experiments
Hi! Could you tag entries with IC50 below 50 nM as t, and those at or above as f? Much appreciated.

>>> class_label("Cc1[nH]c2nc(N)[nH]c(=O)c2c1CCc1ccc(C(=O)N[C@@H](CCC(=O)O)C(=O)O)cc1")
"t"
>>> class_label("Nc1nc2[nH]cc(CCc3ccc(C(=O)N[C@@H](CCC(=O)O)C(=O)O)c(F)c3)c2c(=O)[nH]1")
"t"
>>> class_label("Cc1[nH]c2nc(N)[nH]c(=O)c2c1CCc1ccc(C(=O)N[C@@H](CCC(=O)O)C(=O)O)c(F)c1")
"f"
>>> class_label("Cc1[nH]c2nc(N)[nH]c(=O)c2c1CCCc1ccc(C(=O)N[C@@H](CCC(=O)O)C(=O)O)cc1")
"f"

Input: Criterion: IC50 strictly below 50 nM. Is it met by Nc1nc2[nH]cc(CCc3ccc(C(=O)N[C@@H](CCC(=O)O)C(=O)O)s3)c2c(=O)[nH]1 ?
Output: f

----------
# Lookup of reported RFC/PCFT Selectivity ratios keyed by entry
- Tested on: R2/PCFT4 (PCFT) CHO cells
- experiment.notes: Cell proliferation assay, R2/PCFT4 CHO cells expressing human PCFT
- Assay type: cell-based, Chinese hamster
- test.conditions: ratio of IC50 PC43-10 (RFC) to IC50 R2/PCFT4 (PCFT)
Give a plain numeric answer without units written out.

>>> result("Nc1nc2[nH]cc(CCc3ccc(C(=O)N[C@@H](CCC(=O)O)C(=O)O)s3)c2c(=O)[nH]1")
0.75

Input: Dear colleague, I am looking for the recorded RFC/PCFT Selectivity ratios of the following compound: Nc1nc2[nH]cc(CCc3ccc(C(=O)N[C@@H](CCC(=O)O)C(=O)O)c(F)c3)c2c(=O)[nH]1
Output: 6.5

----------
- Test system: PC43-10 (RFC) CHO cells
- experiment.notes: Cell proliferation assay, PC43-10 CHO cells expressing human RFC
- Format: cell-based, Chinese hamster
- test.conditions: Cricetulus griseus, 96 h, 0-1000 nM, mean (standard error), 3-5 experiments
# Lookup of reported IC50 keyed by entry
Respond with the bare value in nM.

>>> result("Nc1nc2[nH]cc(CCc3ccc(C(=O)N[C@@H](CCC(=O)O)C(=O)O)c(F)c3)c2c(=O)[nH]1")
169
>>> result("Nc1nc2[nH]cc(CCc3ccc(C(=O)N[C@@H](CCC(=O)O)C(=O)O)s3)c2c(=O)[nH]1")
59.9

# input for lookup
Input: Dear colleague, I am looking for the recorded IC50 of the following molecule: Nc1nc2[nH]cc(CCc3ccc(C(=O)N[C@@H](CCC(=O)O)C(=O)O)cc3)c2c(=O)[nH]1 [Compound 1, reference compound]
Output: 30.6

----------
# Lookup of reported RFC/PCFT Selectivity ratios keyed by entry
- Test system: R2/PCFT4 (PCFT) CHO cells
- experiment.notes: Cell proliferation assay, R2/PCFT4 CHO cells expressing human PCFT
- Format: cell-based, Chinese hamster
- test.conditions: ratio of IC50 PC43-10 (RFC) to IC50 R2/PCFT4 (PCFT)

# annotated cases, reported RFC/PCFT Selectivity ratios shown
>>> result("Cc1[nH]c2nc(N)[nH]c(=O)c2c1CCc1ccc(C(=O)N[C@@H](CCC(=O)O)C(=O)O)s1")
">19.4"
>>> result("Cc1[nH]c2nc(N)[nH]c(=O)c2c1CCc1ccc(C(=O)N[C@@H](CCC(=O)O)C(=O)O)cc1")
">130"

# input for lookup
Input: Observed RFC/PCFT Selectivity ratios on R2/PCFT4 (PCFT) CHO cells for Cc1[nH]c2nc(N)[nH]c(=O)c2c1CCCc1ccc(C(=O)N[C@@H](CCC(=O)O)C(=O)O)cc1 , please.
Output: >15.5
